Target: voltage-dependent T-type calcium channel subunit alpha-1G (Cav3.2) (Homo sapiens, UniProt O95180)
Sequence (O95180 whole entry): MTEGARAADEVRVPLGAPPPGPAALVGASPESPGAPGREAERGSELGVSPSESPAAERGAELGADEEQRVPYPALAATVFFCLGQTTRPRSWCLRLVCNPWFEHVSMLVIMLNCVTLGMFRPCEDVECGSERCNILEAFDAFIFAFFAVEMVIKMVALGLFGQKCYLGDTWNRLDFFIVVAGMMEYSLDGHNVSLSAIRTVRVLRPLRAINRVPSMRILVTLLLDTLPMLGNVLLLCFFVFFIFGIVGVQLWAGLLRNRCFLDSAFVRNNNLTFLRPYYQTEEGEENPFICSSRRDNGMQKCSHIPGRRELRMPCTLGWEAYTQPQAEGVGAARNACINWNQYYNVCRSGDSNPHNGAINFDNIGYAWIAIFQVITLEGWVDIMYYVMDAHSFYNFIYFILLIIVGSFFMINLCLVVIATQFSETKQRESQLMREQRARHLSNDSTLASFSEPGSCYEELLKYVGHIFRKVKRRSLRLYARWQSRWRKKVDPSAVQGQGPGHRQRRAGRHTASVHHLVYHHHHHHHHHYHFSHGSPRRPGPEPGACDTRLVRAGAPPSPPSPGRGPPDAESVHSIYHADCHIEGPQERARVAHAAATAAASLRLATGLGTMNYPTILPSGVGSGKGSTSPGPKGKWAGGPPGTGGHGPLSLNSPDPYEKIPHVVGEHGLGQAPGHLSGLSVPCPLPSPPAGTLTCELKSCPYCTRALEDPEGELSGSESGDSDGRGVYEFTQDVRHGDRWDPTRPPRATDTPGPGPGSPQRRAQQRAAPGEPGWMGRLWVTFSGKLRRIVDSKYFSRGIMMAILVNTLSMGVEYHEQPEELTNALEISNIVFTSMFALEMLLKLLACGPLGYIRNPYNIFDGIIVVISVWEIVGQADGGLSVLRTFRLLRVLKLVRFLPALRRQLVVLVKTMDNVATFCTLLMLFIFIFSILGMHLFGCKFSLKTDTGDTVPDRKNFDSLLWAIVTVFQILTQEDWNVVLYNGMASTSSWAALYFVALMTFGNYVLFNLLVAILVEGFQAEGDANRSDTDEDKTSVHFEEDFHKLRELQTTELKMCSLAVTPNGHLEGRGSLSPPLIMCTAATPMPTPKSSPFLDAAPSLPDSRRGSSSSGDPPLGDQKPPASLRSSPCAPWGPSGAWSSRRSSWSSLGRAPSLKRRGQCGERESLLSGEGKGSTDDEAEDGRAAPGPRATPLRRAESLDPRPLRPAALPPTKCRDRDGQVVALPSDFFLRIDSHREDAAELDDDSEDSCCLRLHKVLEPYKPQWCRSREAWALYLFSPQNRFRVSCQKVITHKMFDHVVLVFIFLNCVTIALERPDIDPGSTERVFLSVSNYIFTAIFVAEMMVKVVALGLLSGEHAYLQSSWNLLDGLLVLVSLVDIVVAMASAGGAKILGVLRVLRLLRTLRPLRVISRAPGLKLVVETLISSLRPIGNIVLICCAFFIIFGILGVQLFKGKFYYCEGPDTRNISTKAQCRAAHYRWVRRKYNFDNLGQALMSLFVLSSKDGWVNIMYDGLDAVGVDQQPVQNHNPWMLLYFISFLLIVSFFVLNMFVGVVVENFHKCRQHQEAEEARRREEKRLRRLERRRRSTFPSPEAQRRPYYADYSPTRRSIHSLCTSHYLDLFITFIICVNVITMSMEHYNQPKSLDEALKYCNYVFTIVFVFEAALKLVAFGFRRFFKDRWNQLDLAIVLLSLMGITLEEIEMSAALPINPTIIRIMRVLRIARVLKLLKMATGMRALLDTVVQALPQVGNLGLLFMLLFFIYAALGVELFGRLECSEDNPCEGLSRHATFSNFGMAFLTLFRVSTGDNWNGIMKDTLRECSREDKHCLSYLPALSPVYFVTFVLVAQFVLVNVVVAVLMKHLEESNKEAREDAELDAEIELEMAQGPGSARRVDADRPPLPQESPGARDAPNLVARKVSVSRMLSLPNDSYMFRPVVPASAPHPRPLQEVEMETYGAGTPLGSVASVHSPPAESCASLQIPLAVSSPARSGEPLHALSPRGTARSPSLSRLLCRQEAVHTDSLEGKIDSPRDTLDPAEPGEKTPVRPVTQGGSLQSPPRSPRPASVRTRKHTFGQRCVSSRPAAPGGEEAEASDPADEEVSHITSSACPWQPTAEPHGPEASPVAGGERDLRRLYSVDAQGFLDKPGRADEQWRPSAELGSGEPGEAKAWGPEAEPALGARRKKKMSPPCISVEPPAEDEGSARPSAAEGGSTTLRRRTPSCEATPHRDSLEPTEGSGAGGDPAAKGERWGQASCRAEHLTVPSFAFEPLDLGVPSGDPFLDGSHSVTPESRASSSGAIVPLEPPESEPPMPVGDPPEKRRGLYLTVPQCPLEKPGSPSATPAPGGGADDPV
Assay: FLIPR calcium flux assay, HEK293 cells recombinantly expressing Cav3.2
Settings: Cav3.2-channel, Fluo-4-AM, 3 min incubation, stimulation with 10 mM CaCl2
pIC50: −log10 of the molar value.
Note to self: values exactly at 8 are condition met. So pIC50 at or above 8 is condition met, below is condition not met.

compound: CC(C)(C)c1ccc(CC(=O)Nc2ccn(Cc3ccc(C#N)c(F)c3)n2)cc1
class.label: condition met

compound: COc1ccc(Cn2ccc(NC(=O)Cc3ccc(N4CC(F)C4)nc3)n2)cc1
class.label: condition not met

compound: COC1(c2ccc(CC(=O)Nc3ccn(Cc4cc(F)c(C#N)c(F)c4)n3)cc2)COC1
class.label: condition not met

compound: Cn1ccc2ccc(CC(=O)Nc3ccn(Cc4ccc(F)c(C#N)c4)n3)cc21
class.label: condition not met

compound: COc1ccc(Cn2ccc(NC(=O)Cc3ccc(N(C)C)cc3)n2)cc1C(F)(F)F
class.label: condition not met

compound: O=C(Cc1ccc(N2CC(F)C2)cc1)Nc1ccn(Cc2ccc(F)c(F)c2)n1
class.label: condition met

compound: N#Cc1ccc(Cn2ccc(NC(=O)Cc3ccc(OCC4CC(F)(F)C4)cc3)n2)cc1F
class.label: condition not met

compound: O=C(Cc1ccc(N2CC(F)(F)C2)cc1)Nc1ccn(Cc2ccc(F)c(F)c2)n1
class.label: condition met

compound: CC(C)c1ccc(CC(=O)Nc2ccn(Cc3ccc(N4CCC(F)(F)C4)cn3)n2)cc1
class.label: condition not met

compound: COC(C)c1ccc(CC(=O)Nc2ccn(Cc3ccc(F)c(C#N)c3)n2)cc1 (racemic)
class.label: condition not met
